Molecular target: α-Glucosidase enzyme (E.C. 3.2.1.20) (Saccharomyces cerevisiae)
Construct: purchased Sigma-Aldrich G0660-750UN
Sequence (P53341 whole entry): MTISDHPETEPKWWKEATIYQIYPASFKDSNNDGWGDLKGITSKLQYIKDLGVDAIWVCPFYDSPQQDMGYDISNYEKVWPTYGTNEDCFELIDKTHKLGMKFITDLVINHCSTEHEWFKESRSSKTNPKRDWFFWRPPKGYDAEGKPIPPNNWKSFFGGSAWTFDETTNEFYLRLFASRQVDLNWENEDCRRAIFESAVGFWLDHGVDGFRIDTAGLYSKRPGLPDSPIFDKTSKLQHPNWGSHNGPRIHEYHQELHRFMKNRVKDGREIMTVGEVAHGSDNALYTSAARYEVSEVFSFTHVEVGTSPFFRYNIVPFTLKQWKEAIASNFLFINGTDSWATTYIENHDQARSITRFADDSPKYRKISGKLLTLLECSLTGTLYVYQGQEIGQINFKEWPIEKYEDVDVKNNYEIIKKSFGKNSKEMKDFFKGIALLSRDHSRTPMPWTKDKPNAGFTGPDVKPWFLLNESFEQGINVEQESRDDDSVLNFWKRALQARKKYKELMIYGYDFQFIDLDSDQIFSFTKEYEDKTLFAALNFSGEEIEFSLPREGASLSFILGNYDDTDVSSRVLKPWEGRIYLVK
Experiment: biochemical
Conditions: pH 6.8, 37 °C, substrate p-nitrophenyl-α-D-glucopyranoside 0.7 mM; NA = Not active; read-out: IC50 = µM ± SEM
readout-label: IC50 (µM)

INSERT INTO measurements (molecule, observed) VALUES
  ('C[C@@H]1CC[C@]2(C)CC[C@]3(C)C(=CC=C4[C@@]5(C)CC[C@@H](O)[C@](C)(C(=O)O)C5CC[C@]43C)C2[C@H]1C (stereo partly drawn) [Compound 5, 9,11-Dehydro-β-boswellic acid]', 20.9),
  ('CC(=O)O[C@@H]1CC[C@]2(C)C3=C(CCC2C1(C)C)[C@@]1(C)CCC([C@H](CCC=C(C)C)C(=O)O)[C@]1(C)CC3 (stereo partly drawn) [Compound 3, 3α-Acetoxytirucall-8,24-dien-21-oic acid]', 56.8);
